B1: C8orf76 (parent)
chain: LYLQLAICSSLQNLEKTIFCLQKL

- Variants of: B1
- protocol.text: protein stability index of a GFP-peptide fusion (GPS, HEK-293T) (PSI 1-6); higher = more stable;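 further: lentivirally expressed fusions sorted by FACS into six bins by GFP to DsRed ratio, PSI derived from sequencing read proportions per bin multiplied by bin number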
- condition: c terminus: a fixed tail appended
Decision: protein stability index compared against 3; not below it gives criterion met, below it gives criterion not met.

Known results for variants:
mutation.annotation: L21G
label: criterion met

mutation.annotation: Q12E
label: criterion not met

mutation.annotation: L11F
label: criterion not met

mutation.annotation: Q4F
label: criterion not met

mutation.annotation: T17V
label: criterion not met

mutation.annotation: L24F
label: criterion met

mutation.annotation: K23I
label: criterion not met

mutation.annotation: L11P
label: criterion met

mutation.annotation: S10P
label: criterion not met

mutation.annotation: Q4W
label: criterion not met

# input for lookup
[ask] # bool: protein stability index of L3S >= 3
[reply] criterion met
